Provenance of the data: ChEMBL document CHEMBL1201862

Molecular target: Protein skinhead-1 (Caenorhabditis elegans, UniProt P34707)
Sequence (P34707 whole entry): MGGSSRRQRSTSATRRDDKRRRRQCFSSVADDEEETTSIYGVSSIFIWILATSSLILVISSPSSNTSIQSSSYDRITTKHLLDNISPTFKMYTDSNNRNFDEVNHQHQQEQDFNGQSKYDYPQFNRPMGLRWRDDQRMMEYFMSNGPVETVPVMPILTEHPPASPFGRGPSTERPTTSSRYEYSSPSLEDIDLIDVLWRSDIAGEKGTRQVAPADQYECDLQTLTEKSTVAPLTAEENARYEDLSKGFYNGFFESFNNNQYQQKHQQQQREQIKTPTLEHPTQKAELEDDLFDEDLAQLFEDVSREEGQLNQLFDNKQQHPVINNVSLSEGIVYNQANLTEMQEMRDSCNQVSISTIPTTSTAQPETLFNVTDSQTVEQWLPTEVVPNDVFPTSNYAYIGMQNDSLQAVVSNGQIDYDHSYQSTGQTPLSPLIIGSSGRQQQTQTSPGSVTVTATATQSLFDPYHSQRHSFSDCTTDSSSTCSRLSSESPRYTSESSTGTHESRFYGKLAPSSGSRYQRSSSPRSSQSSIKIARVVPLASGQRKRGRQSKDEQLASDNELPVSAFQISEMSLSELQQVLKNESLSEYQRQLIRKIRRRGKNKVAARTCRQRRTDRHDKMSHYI
Assay type: functional
The source made the active and inactive calls.
One label from this list, please: active, inactive

Query block: Hey, what did the test say about CC(C(=O)N1CCN(C)CC1)N1C(=O)c2ccccc2C1=O (configuration not stated) ?
Result block: inactive

Query block: Do the same for CCC(C(=O)Nc1cccc(S(=O)(=O)N(C)c2ccccc2)c1)c1ccccc1 (configuration not stated) please
Result block: inactive

Query block: Next compound up: Cc1c(C(=O)Nc2cccc(C(F)(F)F)c2)oc2ccc(S(=O)(=O)N3CCOCC3)cc12
Result block: inactive

Query block: What about this compound? CCOc1cc(CNC2CCCC2)cc(Cl)c1OCc1ccc(F)cc1
Result block: active

Query block: Try the compound FCCCOc1ccc(/C=N/OCc2ccc(Cl)cc2)cc1
Result block: inactive

Query block: Also COc1ccccc1C1CN(c2ccc(F)cc2F)N=C1c1cccs1 (configuration not stated) ?
Result block: inactive

Query block: CCCCSc1nc(O)c(C(=O)OCC)cc1C#N ?
Result block: inactive

Query block: Repeat for the following compound: COC(=O)c1cccc(CC2(C)C(=O)Nc3ccc(OC(F)(F)F)cc32)c1 (configuration not stated)
Result block: inactive

Query block: Proceed to O=C(Nc1ccc([N+](=O)[O-])cc1)c1ccccc1
Result block: inactive

Query block: Next entry: Clc1ccc(OCc2cnc(Cl)s2)cc1
Result block: active

Query block: Here is the next compound: Fc1ccc(/C=C/c2nnc(-c3cccs3)o2)cc1
Result block: inactive

Query block: Lookup COc1ccc(-c2nc(C[S+]([O-])CC(=O)NCc3ccccn3)c(C)o2)cc1 (configuration not stated)
Result block: inactive

====

Target: Endoribonuclease toxin MazF (Escherichia coli K-12, UniProt P0AE70)
Sequence (P0AE70 whole entry): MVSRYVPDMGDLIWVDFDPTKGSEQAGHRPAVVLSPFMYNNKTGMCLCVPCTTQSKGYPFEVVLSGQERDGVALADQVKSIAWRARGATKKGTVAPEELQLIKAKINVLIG
Assay: fluorescent RNA oligo signal without MazF, dose response, counter-screen for MazEF activator project, biochemical, fluorescence, single-stranded RNase substrate (AID 588502)
Type: functional
Calls of active or inactive are those of the source.
MEASURED PROPERTY: EC50

Query block: Which measured EC50 value corresponds to C#CCN1c2ccccc2Sc2cccnc21 ?
Result block: 85.6 µM (inactive)

Query block: Next record, please: O=c1[nH]cnc2scc(-c3ccc(-c4ccccc4)cc3)c12
Result block: > 99 µM (inactive)

Query block: Now give it for CCN(CC)c1ccc(/C=N/c2ccc(N(C)C)cc2)c(O)c1 too.
Result block: > 99 µM (inactive)

Query block: Queued: CCn1c(O)c(/C=N/N=C/c2ccccc2)c2ccc(C3=NNC(=O)CC3)cc21
Result block: > 99 µM (inactive)

====

Target: Fatty acid synthase (Homo sapiens, UniProt P49327)
Sequence (P49327 whole entry, the tested form may be a part): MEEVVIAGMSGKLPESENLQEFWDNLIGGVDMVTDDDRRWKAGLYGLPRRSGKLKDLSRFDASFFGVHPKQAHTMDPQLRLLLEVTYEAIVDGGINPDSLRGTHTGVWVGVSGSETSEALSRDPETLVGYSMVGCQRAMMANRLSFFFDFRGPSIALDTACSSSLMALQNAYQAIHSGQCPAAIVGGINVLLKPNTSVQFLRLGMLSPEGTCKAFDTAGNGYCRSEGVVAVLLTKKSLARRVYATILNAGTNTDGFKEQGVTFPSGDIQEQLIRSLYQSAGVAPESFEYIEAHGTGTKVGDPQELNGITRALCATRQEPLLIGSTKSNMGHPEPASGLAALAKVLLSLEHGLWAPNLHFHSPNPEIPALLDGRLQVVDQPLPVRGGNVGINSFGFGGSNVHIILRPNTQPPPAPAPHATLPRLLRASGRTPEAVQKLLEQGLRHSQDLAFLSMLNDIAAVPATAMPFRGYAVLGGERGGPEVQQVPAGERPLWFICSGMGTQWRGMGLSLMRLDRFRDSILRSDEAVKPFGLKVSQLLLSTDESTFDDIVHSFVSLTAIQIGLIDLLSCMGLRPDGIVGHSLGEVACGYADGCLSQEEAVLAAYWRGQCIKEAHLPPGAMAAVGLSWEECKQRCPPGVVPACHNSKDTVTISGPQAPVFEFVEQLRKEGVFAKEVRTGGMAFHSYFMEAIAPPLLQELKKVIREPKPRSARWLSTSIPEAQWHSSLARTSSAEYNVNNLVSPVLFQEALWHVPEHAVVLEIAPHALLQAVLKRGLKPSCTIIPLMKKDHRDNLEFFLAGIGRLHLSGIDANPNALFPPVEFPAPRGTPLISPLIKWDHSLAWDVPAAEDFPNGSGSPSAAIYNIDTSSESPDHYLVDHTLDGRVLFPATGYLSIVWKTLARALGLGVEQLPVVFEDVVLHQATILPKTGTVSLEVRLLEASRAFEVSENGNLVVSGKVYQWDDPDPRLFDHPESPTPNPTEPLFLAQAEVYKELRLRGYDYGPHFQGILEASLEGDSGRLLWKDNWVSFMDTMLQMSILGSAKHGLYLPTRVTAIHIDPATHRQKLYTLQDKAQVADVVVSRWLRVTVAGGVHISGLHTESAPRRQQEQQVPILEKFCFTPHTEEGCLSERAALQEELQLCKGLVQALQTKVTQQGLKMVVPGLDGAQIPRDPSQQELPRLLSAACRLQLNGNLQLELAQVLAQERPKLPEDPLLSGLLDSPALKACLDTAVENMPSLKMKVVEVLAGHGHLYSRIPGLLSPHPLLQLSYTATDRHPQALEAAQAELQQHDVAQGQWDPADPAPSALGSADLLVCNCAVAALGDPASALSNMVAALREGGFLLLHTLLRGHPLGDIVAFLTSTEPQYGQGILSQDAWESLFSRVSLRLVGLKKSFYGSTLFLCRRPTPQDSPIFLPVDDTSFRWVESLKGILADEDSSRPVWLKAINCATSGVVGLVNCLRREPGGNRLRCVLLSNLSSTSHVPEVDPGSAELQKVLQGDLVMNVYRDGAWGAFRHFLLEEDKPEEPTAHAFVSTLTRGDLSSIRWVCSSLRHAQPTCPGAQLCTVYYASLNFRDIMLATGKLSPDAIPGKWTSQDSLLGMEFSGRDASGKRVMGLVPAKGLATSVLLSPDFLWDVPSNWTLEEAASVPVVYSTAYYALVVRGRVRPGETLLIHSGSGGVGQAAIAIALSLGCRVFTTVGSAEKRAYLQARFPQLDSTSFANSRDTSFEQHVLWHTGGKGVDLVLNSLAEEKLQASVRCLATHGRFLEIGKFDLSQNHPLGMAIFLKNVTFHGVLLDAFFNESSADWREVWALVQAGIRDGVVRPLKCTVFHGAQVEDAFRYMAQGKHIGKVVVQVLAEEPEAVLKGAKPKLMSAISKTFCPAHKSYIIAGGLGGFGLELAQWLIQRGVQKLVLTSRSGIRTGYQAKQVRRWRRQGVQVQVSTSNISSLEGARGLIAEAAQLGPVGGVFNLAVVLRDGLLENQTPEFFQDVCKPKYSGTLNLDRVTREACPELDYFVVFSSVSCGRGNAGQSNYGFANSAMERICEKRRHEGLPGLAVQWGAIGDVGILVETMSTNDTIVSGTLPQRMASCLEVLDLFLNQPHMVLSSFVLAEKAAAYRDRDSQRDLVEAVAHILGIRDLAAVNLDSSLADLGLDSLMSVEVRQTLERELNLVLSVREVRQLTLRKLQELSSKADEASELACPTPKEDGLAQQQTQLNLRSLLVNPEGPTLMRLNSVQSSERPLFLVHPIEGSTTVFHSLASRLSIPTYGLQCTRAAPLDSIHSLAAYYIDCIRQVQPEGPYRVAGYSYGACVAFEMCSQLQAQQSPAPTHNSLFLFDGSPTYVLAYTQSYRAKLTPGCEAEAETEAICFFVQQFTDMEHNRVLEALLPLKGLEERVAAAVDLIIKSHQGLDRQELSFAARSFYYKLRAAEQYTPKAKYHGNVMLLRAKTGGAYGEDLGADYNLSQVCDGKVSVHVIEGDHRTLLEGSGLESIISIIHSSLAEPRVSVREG
Assay: FAS thioesterase domain inhibitors, dose response, biochemical, kinetic fluorescence intensity (AID 624326);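 note: rate of fluorescence rise from hydrolysis of a fluorogenic O-methyl fluorescein ester substrate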
Format: functional
Activity calls are given as the source filed them.
MEASURED PROPERTY: IC50

Query block: Quick check: IC50 on Fatty acid synthase (Homo sapiens, UniProt P49327), item CCOC(=O)C1CCN(C(=O)c2cc3cc4ccc(C)cc4nc3o2)CC1 ?
Result block: 12.2 µM (active)

Query block: Field entry: CC1CCCN(S(=O)(=O)c2ccc(NC(=O)Cc3ccc(S(=O)(=O)N4CCOCC4)s3)cc2)C1 (stereo not drawn)
Result block: 9.35 µM (active)

Query block: Another molecule to look at: CC1CCCCN1C(=O)COC(=O)c1cc([N+](=O)[O-])ccc1N1CCOCC1 (stereo not drawn)
Result block: 10.9 µM (active)

Query block: Another molecule to look at: O=C(CN1C(=O)c2cccc([N+](=O)[O-])c2C1=O)N1CCc2ccccc2C1
Result block: 9.41 µM (active)

Query block: Moving on to O=C(NCCCc1ccccc1)c1cc([N+](=O)[O-])ccc1Cl
Result block: 3.28 µM (active)

Query block: Try the molecule O=C(COC(=O)c1cc([N+](=O)[O-])ccc1N1CCOCC1)NC1CCCCC1
Result block: 0.266 µM (active)

Query block: And the next one, CC(C)CCNC(=O)C1CC(c2cccc([N+](=O)[O-])c2)=NO1 (stereo not drawn) ?
Result block: 11 µM (active)

Query block: Again, but for COc1ccc(C(c2nnnn2-c2c(C)cccc2C)N2CCC(n3c(O)nc4ccccc43)CC2)cc1 (stereo not drawn)
Result block: 16 µM (active)

Query block: Subsequent entry: CC(=O)c1ccc(N2CCN(S(=O)(=O)c3ccc(-c4cnc(C5CC5)o4)cc3)CC2)cc1
Result block: 11.6 µM (active)

Query block: Moving on to the next molecule: N#CC1(NC(=O)COC(=O)c2cc([N+](=O)[O-])ccc2N2CCCC2)CCCCC1
Result block: 5.51 µM (active)

Query block: Field entry: COc1cc([N+](=O)[O-])cc(/C=N/NC(=O)c2cncc(Br)c2)c1O
Result block: 10.2 µM (active)

Query block: Cool, now CCc1cccc(CC)c1NC(=O)/C(C#N)=C/c1ccccc1C(F)(F)F
Result block: 4.74 µM (active)

Query block: Now consider CCOC(=O)c1sc(N2C(=O)C(O)=C(C(=O)c3ccco3)C2c2ccc([N+](=O)[O-])cc2)nc1C (stereo not drawn) and answer again.
Result block: 7.89 µM (active)

====

Target: Calpain-2 catalytic subunit (Sus scrofa, UniProt P43367)
Sequence (P43367 whole entry): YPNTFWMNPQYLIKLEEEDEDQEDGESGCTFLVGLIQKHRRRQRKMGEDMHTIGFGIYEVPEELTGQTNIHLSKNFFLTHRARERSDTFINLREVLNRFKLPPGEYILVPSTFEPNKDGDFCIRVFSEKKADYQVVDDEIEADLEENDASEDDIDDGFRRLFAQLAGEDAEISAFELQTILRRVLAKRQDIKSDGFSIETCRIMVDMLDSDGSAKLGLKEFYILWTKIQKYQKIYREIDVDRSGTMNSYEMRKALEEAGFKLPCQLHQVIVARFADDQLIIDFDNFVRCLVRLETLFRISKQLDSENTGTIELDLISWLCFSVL
Experiment: pig calpain II inhibitor potency, dose response, biochemical, fluorogenic peptide substrate (AID 1420)
Assay type: functional
MEASURED PROPERTY: IC50

Query block: Look up IC50: O=[N+]([O-])c1ccc2c(c1)C(N1CCOCC1)/C(=C/COc1ccc(Cl)cc1Cl)O2 (centres undefined)
Result block: 5.41 µM (not active)

Query block: How about this molecule: CC(C)NC(=S)N/N=C/c1ccc2c(c1)OCCO2
Result block: > 50 µM (not active)

Query block: Follow-up entry: O=C(CSc1ncc(C(F)(F)F)cc1Cl)N1CCN(S(=O)(=O)c2ccc(Cl)cc2)CC1
Result block: 4.37 µM (not active)

Query block: Same for COc1ccc(/C=N/Nc2nn3cnnc3c3ccccc23)cc1
Result block: 5.99 µM (not active)

====

System: Cytochrome P450 3A4 (Homo sapiens, UniProt P08684) | Read-out: AC50;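 note: CYP3A4 tested as one member of a cytochrome P450 panel screen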
Sequence (P08684 whole entry): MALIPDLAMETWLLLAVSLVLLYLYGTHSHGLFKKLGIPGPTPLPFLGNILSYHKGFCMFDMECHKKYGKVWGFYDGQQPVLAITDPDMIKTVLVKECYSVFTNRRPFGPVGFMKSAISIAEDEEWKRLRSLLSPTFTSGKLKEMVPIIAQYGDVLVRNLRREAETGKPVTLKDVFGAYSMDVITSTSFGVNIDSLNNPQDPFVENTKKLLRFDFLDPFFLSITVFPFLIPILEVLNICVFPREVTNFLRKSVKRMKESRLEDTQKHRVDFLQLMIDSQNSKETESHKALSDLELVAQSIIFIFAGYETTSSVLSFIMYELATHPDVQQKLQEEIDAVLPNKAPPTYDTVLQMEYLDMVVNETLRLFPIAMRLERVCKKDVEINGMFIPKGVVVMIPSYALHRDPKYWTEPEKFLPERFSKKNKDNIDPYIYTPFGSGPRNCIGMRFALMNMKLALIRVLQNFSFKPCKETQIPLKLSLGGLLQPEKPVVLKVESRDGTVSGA

Query block: Param item = COc1cccc(NC(=O)Cc2c(C(=O)O)[nH]c3ccccc23)c1 ; retrieve measured AC50.
Result block: 15.8 µM (inconclusive)

Query block: Would you kindly repeat that for CN1CCN(c2ncc3nc(-c4cc(F)cc(F)c4)c(=O)n(C4CC4)c3n2)CC1 ?
Result block: 39.8 µM (inconclusive)

Query block: What would you report for CCOC(=O)c1[nH]c(C)c(C(=O)N2CCC3(CC2)OCCO3)c1C ?
Result block: 22.4 µM (inconclusive)

Query block: Try CN(CCc1ccc(Cl)c(Cl)c1)C[C@@H](O)COc1ccc(NS(C)(=O)=O)cc1 next.
Result block: 15.8 µM (inconclusive)

Query block: Here is the next compound: CO[C@H]1COC(=O)CCC[C@@H](C)[C@H](OC)COC(=O)[C@H]2CCCN2C(=O)C/C=C\[C@@H]1C
Result block: 5.01 µM (inconclusive)

Query block: Next up: c1ccc(-c2ccc(N3CC4(CCNCC4)C3)cc2)cc1
Result block: 25.1 µM (inconclusive)

Query block: Similarly, CC(=O)[C@@H]1CC[C@@H]2[C@@H]3CC=C4C[C@H](OS(=O)(=O)O)CC[C@@]4(C)[C@H]3CC[C@]21C ?
Result block: 12.6 µM (inconclusive)

Query block: What do you have for O=C(c1cc(C(F)(F)F)cc(C(F)(F)F)c1)N1CCC[C@@]2(CCN(c3ccccc3)C2)C1 ?
Result block: 3.16 µM (inconclusive)

Query block: What about this compound? COc1cccc(Nc2ncc3nc(-c4cccs4)c(=O)n(-c4ccccc4)c3n2)c1
Result block: 20 µM (inconclusive)

Query block: Then what about the compound O=C1c2ccccc2NC(c2ccc(F)cc2)N1Cc1ccco1 (centres undefined) ?
Result block: 14.1 µM (inconclusive)

Query block: And the next one, CCCCC#Cc1nc(N)c2ncn([C@@H]3O[C@@H](C(=O)NCC)[C@H](O)[C@@H]3O)c2n1 ?
Result block: 15.8 µM (inconclusive)

Query block: Repeat for the following compound: CNc1ccnc(-c2ccccc2OC)n1
Result block: 31.6 µM (inconclusive)

Query block: Follow-up item: COc1ccc(/C(O)=C(\C#N)c2nc3ccccc3n2C)cc1OC
Result block: 3.55 µM (inconclusive)

Query block: Can you handle O=C1[C@H]2[C@H]3[C@H](O)[C@H](O)C/C(=N/OC[C@@H](O)COCc4ccco4)[C@H]3CC[C@@H]2C(=O)N1c1cccc(Oc2ccccc2)c1 next?
Result block: 3.16 µM (inconclusive)

Query block: Next up: O=C(Nc1cccc(F)c1)N1CC[C@@]2(CCCN(C(=O)Oc3ccccc3)C2)C1
Result block: 5.01 µM (inconclusive)

Query block: Try COc1ccccc1NC(=O)CCc1c(C)nc(O)c(C#N)c1C next.
Result block: 17.8 µM (inconclusive)

Query block: What do we get for COC(=O)N1CCC2(CCCN(Cc3ccc(C#N)cc3)C2)CC1 ?
Result block: 15.8 µM (inconclusive)

Query block: Same lookup for CCOc1ccc(-c2c(=O)n(OCc3ccccn3)c3ccccc3[n+]2[O-])cc1 , please.
Result block: 12.6 µM (inconclusive)

Query block: What do you get for CCOC(=O)c1c(C)n(C)c2ccc(OC)c(NS(=O)(=O)c3ccc(Cl)s3)c12 ?
Result block: 1.58 µM (inconclusive)
